# tested-system: T1, human 4Ig-B7H3 (B7H3-4Ig-His) (human, UniProt Q5ZPR3 29-466)
# T1 construct: Recombinant His-tagged protein immobilised on a CM5 chip; also called 41g-B7H3; human 4Ig-B7-H3 (dominant isoform); not shown: His tag
# T1 sequence: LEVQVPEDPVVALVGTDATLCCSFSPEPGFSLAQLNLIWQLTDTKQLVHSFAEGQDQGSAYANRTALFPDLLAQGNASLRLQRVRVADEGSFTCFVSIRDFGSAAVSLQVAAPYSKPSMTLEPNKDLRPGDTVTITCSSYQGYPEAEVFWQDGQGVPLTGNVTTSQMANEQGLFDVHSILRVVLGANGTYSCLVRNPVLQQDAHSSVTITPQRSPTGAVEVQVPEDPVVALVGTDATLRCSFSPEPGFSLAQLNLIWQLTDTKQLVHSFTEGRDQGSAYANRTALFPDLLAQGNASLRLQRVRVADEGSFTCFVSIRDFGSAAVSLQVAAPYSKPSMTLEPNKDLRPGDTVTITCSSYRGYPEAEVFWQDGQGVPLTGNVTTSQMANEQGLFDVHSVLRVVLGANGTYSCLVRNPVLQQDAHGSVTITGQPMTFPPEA
# procedure-text: SPR
pKd: −log10 of the molar value.
Classify as follows. Reported pKd greater than or equal to 8: fulfilled. Reported pKd below: not fulfilled.

>  <binder>
175Lu-DTPA-8H9-antibody (CAR6.1) (antibody, mouse IgG1, kappa, V domains shown, p-SCN-Bn-CHX-A″-DTPA conjugated (CAR 6.1 per antibody), labelled with cold lutetium-175; sites not stated) VH: QVQLQQSGAELVKPGASVKLSCKASGYTFTNYDINWVRQRPEQGLEWIGWIFPGDGSTQYNEKFKGKATLTTDTSSSTAYMQLSRLTSEDSAVYFCARQTTATWFAYWGQGTLVTVSA VL: DIVMTQSPATLSVTPGDRVSLSCRASQSISDYLHWYQQKSHESPRLLIKYASQSISGIPSRFSGSGSGSDFTLSINSVEPEDVGVYYCQNGHSFPLTFGAGTKLELKR

>  <class-name>
not fulfilled

$$$$
>  <binder>
127I-8H9-antibody P76501A (antibody, mouse IgG1, kappa, V domains shown, labelled with iodine-127; sites not stated) VH: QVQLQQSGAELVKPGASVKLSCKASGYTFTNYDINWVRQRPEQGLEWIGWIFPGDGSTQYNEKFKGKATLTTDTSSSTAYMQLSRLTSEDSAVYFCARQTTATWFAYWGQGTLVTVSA VL: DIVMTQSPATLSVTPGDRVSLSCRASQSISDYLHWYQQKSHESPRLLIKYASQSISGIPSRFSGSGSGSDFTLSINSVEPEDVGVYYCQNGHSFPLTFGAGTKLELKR

>  <class-name>
fulfilled

$$$$

Hi, just wondering whether 175Lu-DTPA-8H9-antibody (CAR3.6) (antibody, mouse IgG1, kappa, V domains shown, p-SCN-Bn-CHX-A″-DTPA conjugated (CAR 3.6 per antibody), labelled with cold lutetium-175; sites not stated) VH: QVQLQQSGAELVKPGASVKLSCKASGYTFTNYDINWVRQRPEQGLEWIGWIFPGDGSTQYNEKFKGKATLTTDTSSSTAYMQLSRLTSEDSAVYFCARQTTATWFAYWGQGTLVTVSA VL: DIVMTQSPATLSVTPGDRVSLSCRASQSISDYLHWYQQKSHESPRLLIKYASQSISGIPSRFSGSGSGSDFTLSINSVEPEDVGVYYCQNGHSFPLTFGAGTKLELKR shows pKd of 8 or higher.
not fulfilled
